quantity-kind: melting point

The cases that follow already have their melting point on record.
[
  {
    "molecule": "Cc1cc(Cl)nc2ccc(Cn3ccnc3)cc12",
    "quantity-kind": "melting point",
    "observed-measurement": "121 °C"
  },
  {
    "molecule": "CC(C)(C)Nc1cc(Cl)nc(N2CCCC2)n1",
    "quantity-kind": "melting point",
    "observed-measurement": "148 to 150 °C"
  },
  {
    "molecule": "Cc1c(NC(=O)CC(CSC(=O)Cc2ccccc2)c2ccccc2)cccc1C(=O)O (stereo not given)",
    "quantity-kind": "melting point",
    "observed-measurement": "135 to 137 °C"
  },
  {
    "molecule": "COC(=O)/C=C/c1nc2ccc(Cl)cc2c(=O)o1",
    "quantity-kind": "melting point",
    "observed-measurement": "117 to 118 °C"
  },
  {
    "molecule": "CC(=O)OCCCCn1cnc2c(Cl)nc(Nc3ccccc3)nc21",
    "quantity-kind": "melting point",
    "observed-measurement": "195 to 197 °C"
  },
  {
    "molecule": "CN(C(=O)/C=C/c1ccco1)c1ccc(S(=O)(=O)NC2CCCCCC2)cc1",
    "quantity-kind": "melting point",
    "observed-measurement": "152 to 155 °C"
  },
  {
    "molecule": "Ic1cccc2c1CCOC2",
    "quantity-kind": "melting point",
    "observed-measurement": "54 to 56 °C"
  },
  {
    "molecule": "Cn1nc(-c2cc(Oc3ccccc3)c(C#N)cc2F)c(Cl)c1C(F)(F)F",
    "quantity-kind": "melting point",
    "observed-measurement": "123 °C"
  },
  {
    "molecule": "CCc1oc2ccccc2c1C(=O)N(Cc1ccccc1)Cc1ccc2c(Br)c(OCC#N)ccc2c1",
    "quantity-kind": "melting point",
    "observed-measurement": "92 to 100 °C"
  }
]

Return the recorded melting point value; entry: CC(=O)c1cc(CNS(C)(=O)=O)ccc1O
85 to 86.5 °C
